- TESTED ON: uPAR-expressing HEC-265 human endometrial adenocarcinoma cells (Homo sapiens, UniProt Q03405)
- Sequence (Q03405 23-335): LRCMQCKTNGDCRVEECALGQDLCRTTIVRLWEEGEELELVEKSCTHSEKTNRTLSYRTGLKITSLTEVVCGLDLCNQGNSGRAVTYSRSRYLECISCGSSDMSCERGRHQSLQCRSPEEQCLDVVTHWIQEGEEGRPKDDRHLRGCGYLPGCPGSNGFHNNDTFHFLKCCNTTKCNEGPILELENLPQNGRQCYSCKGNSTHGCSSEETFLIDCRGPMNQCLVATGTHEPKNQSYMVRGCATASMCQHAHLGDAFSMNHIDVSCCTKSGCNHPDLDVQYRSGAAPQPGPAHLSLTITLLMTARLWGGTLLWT
Where a SMILES comes first, the peptide text is derived from it. Bridges are numbered along the chain shown (N, C = ends). [ ]: non-standard residue; d: D form. The star is where a group is joined. DOTA = O=C(O)CN1CCN(CC(=O)O)CCN(CC(=O)*)CCN(CC(=O)O)CC1; Hyp = O=C(O)[C@@H]1C[C@@H](O)CN1; Cit = NC(=O)NCCC[C@H](N)C(=O)O; hCys = N[C@@H](CCS)C(=O)O; NMeA = CN[C@@H](C)C(=O)O; Nva = CCC[C@H](N)C(=O)O; Pentanoyl = CCCCC(=O)*; X7 = CCCOCC(=O)*
READOUT KIND: IC50

Before answering, review these 2 worked examples.
Please look up its IC50: CCCCC(=O)N[C@H]1CSSC[C@@H](C(N)=O)NC(=O)[C@H](CCC)NC(=O)[C@H]([C@@H](C)CC)NC(=O)[C@H](C)N(C)C(=O)[C@@H]2CCCN2C(=O)[C@H](Cc2ccccc2)NC(=O)[C@H](Cc2ccc(O)cc2)NC(=O)[C@H](CCCCNC(=O)CN2CCN(CC(=O)O)CCN(CC(=O)O)CCN(CC(=O)O)CC2)NC(=O)[C@H](CCCNC(N)=O)NC1=O [UPAR-316] (Pentanoyl-C[Cit]K(DOTA)YFP[NMeA]I[Nva]C-NH2; disulfide 1-10)
12.6 to 31.6 nM

Now this one: CCCCC(=O)N[C@H]1CSSCC[C@@H](C(N)=O)NC(=O)[C@H](CCC)NC(=O)[C@H]([C@@H](C)CC)NC(=O)[C@@H]2C[C@@H](O)CN2C(=O)[C@@H]2CCCN2C(=O)[C@H](Cc2ccccc2)NC(=O)[C@H](Cc2ccc(O)cc2)NC(=O)[C@H](CCC(N)=O)NC(=O)[C@H](CCCNC(=N)N)NC1=O [UPAR-213] (Pentanoyl-CRQYFP[Hyp]I[Nva][hCys]-NH2; disulfide 1-10)
≤ 10 nM

Now let's try a different one.
Please look up its IC50: CCCOCC(=O)N[C@H]1CSSC[C@@H](C(N)=O)NC(=O)[C@H](CC(C)C)NC(=O)[C@H]([C@@H](C)CC)NC(=O)[C@@H](C)NC(=O)[C@@H]2CCCN2C(=O)[C@H](Cc2ccccc2)NC(=O)[C@H](Cc2ccc(O)cc2)NC(=O)[C@H](CCC(N)=O)NC(=O)[C@H](CCCNC(N)=O)NC1=O [UPAR-212] (X7-C[Cit]QYFP[dA]ILC-NH2; disulfide 1-10)
12.6 to 31.6 nM

* * *

pIC50: −log10 of the molar value. Where a SMILES comes first, the peptide text is derived from it. Bridges are numbered along the chain shown (N, C = ends). [ ]: non-standard residue; d: D form. The star is where a group is joined. DOTA = O=C(O)CN1CCN(CC(=O)O)CCN(CC(=O)*)CCN(CC(=O)O)CC1; Pentanoyl(4-Me) = CC(C)CCC(=O)*; Cha = N[C@@H](CC1CCCCC1)C(=O)O; Cit = NC(=O)NCCC[C@H](N)C(=O)O
Let's go through some recorded pIC50 values for uPAR-expressing HEC-265 human endometrial adenocarcinoma cells (Homo sapiens) together.

Please look up its pIC50: CC[C@H](C)[C@@H]1NC(=O)[C@H](CCCCNC(=O)CN2CCN(CC(=O)O)CCN(CC(=O)O)CCN(CC(=O)O)CC2)NC(=O)[C@@H]2CCCN2C(=O)[C@H](Cc2ccccc2)NC(=O)[C@H](Cc2ccc(O)cc2)NC(=O)[C@H](CCC(N)=O)NC(=O)[C@H](CCCNC(N)=O)NC(=O)[C@@H](NC(=O)CCC(C)C)CSSC[C@@H](C(N)=O)NC(=O)[C@H](CC(C)C)NC1=O [UPAR-145] ({Pentanoyl(4-Me)}-C[Cit]QYFPK(DOTA)ILC-NH2; disulfide 1-10)
≥ 8.00

Now let's try a different one.
Please look up its pIC50: CC[C@H](C)[C@@H]1NC(=O)[C@@H](C)NC(=O)[C@@H]2CCCN2C(=O)[C@H](Cc2ccccc2)NC(=O)[C@H](Cc2ccc(O)cc2)NC(=O)[C@H](CCC(N)=O)NC(=O)[C@H](CCCNC(N)=O)NC(=O)[C@@H](NC(=O)CCC(C)C)CSSC[C@@H](C(N)=O)NC(=O)[C@H](CC2CCCCC2)NC1=O [UPAR-474] ({Pentanoyl(4-Me)}-C[Cit]QYFP[dA]I[Cha]C-NH2; disulfide 1-10)
≤ 6.90

* * *

- TESTED ON: uPAR-expressing HEC-265 human endometrial adenocarcinoma cells (Homo sapiens, UniProt Q03405)
Where a SMILES comes first, the peptide text is derived from it. Bridges are numbered along the chain shown (N, C = ends). [ ]: non-standard residue; d: D form. The star is where a group is joined. DOTA = O=C(O)CN1CCN(CC(=O)O)CCN(CC(=O)*)CCN(CC(=O)O)CC1; Cit = NC(=O)NCCC[C@H](N)C(=O)O; AEEA = NCCOCCOCC(=O)O
READOUT KIND: IC50

Please look up its IC50: CC[C@H](C)[C@@H]1NC(=O)[C@@H]2CCCN2C(=O)[C@@H]2CCCN2C(=O)[C@H](Cc2ccccc2)NC(=O)[C@H](Cc2ccc(O)cc2)NC(=O)[C@H](CCC(N)=O)NC(=O)[C@H](CCCNC(N)=O)NC(=O)[C@@H](NC(=O)[C@H](CC(C)C)NC(=O)COCCOCCNC(=O)CN2CCN(CC(=O)O)CCN(CC(=O)O)CCN(CC(=O)O)CC2)CSSC[C@@H](C(N)=O)NC(=O)[C@H](CC(C)C)NC1=O [UPAR-229] ({DOTA-AEEA}-LC[Cit]QYFPPILC-NH2; disulfide 2-11)
≤ 10 nM

* * *

- TESTED ON: human uPAR (uPAR-Fc) (Homo sapiens)
- Construct: comprising amino acids Leu23-Arg303 according to UniProt entry Q03405.1; purchased R&D Systems 10378-UK-100
- Sequence (Q03405 23-303): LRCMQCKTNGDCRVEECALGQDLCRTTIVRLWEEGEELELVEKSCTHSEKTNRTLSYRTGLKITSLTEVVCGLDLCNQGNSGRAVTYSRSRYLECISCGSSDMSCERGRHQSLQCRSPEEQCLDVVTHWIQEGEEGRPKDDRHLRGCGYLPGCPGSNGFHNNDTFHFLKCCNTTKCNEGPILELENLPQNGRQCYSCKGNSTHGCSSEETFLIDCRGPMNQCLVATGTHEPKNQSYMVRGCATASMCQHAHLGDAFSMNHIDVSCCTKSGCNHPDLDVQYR
- RUN DESCRIPTION: Surface plasmon resonance (SPR) assay, single cycle kinetics
- Assay type: binding
- REPORTED CONDITIONS: pKD category for uPAR SPR activity assay; uPAR-Fc on Protein A-Chip, single cycle kinetics, 25°C; read-out: pKD CAT (converted)
Where a SMILES comes first, the peptide text is derived from it. Bridges are numbered along the chain shown (N, C = ends). [ ]: non-standard residue; d: D form. The star is where a group is joined. Hyp = O=C(O)[C@@H]1C[C@@H](O)CN1; hPhe = N[C@@H](CCc1ccccc1)C(=O)O; Pentanoyl(4-Me) = CC(C)CCC(=O)*; X10 = CC(C)C[C@@H](C(=O)*)N(C)C; Cit = NC(=O)NCCC[C@H](N)C(=O)O; Nva = CCC[C@H](N)C(=O)O; Pentanoyl = CCCCC(=O)*
READOUT KIND: Kd

Before answering, review these 2 worked examples.
Please look up its Kd: CCCCC(=O)N[C@H]1CSSC[C@@H](C(N)=O)NC(=O)[C@H](CCC)NC(=O)[C@H]([C@@H](C)CC)NC(=O)[C@@H]2C[C@@H](O)CN2C(=O)[C@@H]2CCCN2C(=O)[C@H](Cc2ccccc2)NC(=O)[C@H](CCc2ccccc2)NC(=O)[C@H](CCC(N)=O)NC(=O)[C@H](CCCNC(=N)N)NC1=O [UPAR-366] (Pentanoyl-CRQ[hPhe]FP[Hyp]I[Nva]C-NH2; disulfide 1-10)
10 to 100 nM

Now this one: CCC[C@@H]1NC(=O)[C@H]([C@@H](C)CC)NC(=O)[C@@H]2C[C@@H](O)CN2C(=O)[C@@H]2CCCN2C(=O)[C@H](Cc2ccccc2)NC(=O)[C@H](Cc2ccc(O)cc2)NC(=O)[C@H](CCC(N)=O)NC(=O)[C@H](CCCNC(=N)N)NC(=O)[C@@H](NC(=O)[C@H](CC(C)C)N(C)C)CSSC[C@@H](C(N)=O)NC1=O [UPAR-487] (X10-CRQYFP[Hyp]I[Nva]C-NH2; disulfide 1-10)
1.58 to 10 nM

Continuing:
Please look up its Kd: CCC[C@@H]1NC(=O)[C@H]([C@@H](C)CC)NC(=O)[C@@H](C)NC(=O)[C@@H]2CCCN2C(=O)[C@H](Cc2ccccc2)NC(=O)[C@H](Cc2ccc(O)cc2)NC(=O)[C@H](CCC(N)=O)NC(=O)[C@H](CCCNC(N)=O)NC(=O)[C@@H](NC(=O)CCC(C)C)CSSC[C@@H](C(N)=O)NC1=O [UPAR-429] ({Pentanoyl(4-Me)}-C[Cit]QYFP[dA]I[Nva]C-NH2; disulfide 1-10)
< 1.58 nM

* * *

Listed next: entries and their corresponding pIC50.
- TESTED ON: uPAR-expressing HEC-265 human endometrial adenocarcinoma cells (Homo sapiens, UniProt Q03405)
pIC50: −log10 of the molar value. Where a SMILES comes first, the peptide text is derived from it. Bridges are numbered along the chain shown (N, C = ends). [ ]: non-standard residue; d: D form. The star is where a group is joined. DOTA = O=C(O)CN1CCN(CC(=O)O)CCN(CC(=O)*)CCN(CC(=O)O)CC1; Dopa = N[C@@H](Cc1ccc(O)c(O)c1)C(=O)O; Hyp = O=C(O)[C@@H]1C[C@@H](O)CN1; NMeF = CN[C@@H](Cc1ccccc1)C(=O)O; Cit = NC(=O)NCCC[C@H](N)C(=O)O; Butoxycarbonyl = CCCCOC(=O)*; Nva = CCC[C@H](N)C(=O)O; Pentanoyl = CCCCC(=O)*

Please look up its pIC50: CCCCC(=O)N[C@H]1CSSC[C@@H](C(N)=O)NC(=O)[C@H](CCC)NC(=O)[C@H]([C@@H](C)CC)NC(=O)[C@@H]2C[C@@H](O)CN2C(=O)[C@@H]2CCCN2C(=O)[C@H](Cc2ccccc2)N(C)C(=O)[C@H](Cc2ccc(O)cc2)NC(=O)[C@H](CCCCNC(=O)CN2CCN(CC(=O)O)CCN(CC(=O)O)CCN(CC(=O)O)CC2)NC(=O)[C@H](CCCNC(N)=O)NC1=O [UPAR-398] (Pentanoyl-C[Cit]K(DOTA)Y[NMeF]P[Hyp]I[Nva]C-NH2; disulfide 1-10)
≤ 6.90

Now let's try a different one.
Please look up its pIC50: CCCCOC(=O)N[C@H]1CSSC[C@@H](C(N)=O)NC(=O)[C@H](CCC)NC(=O)[C@H]([C@@H](C)CC)NC(=O)[C@@H]2C[C@@H](O)CN2C(=O)[C@@H]2C[C@@H](O)CN2C(=O)[C@H](Cc2ccccc2)NC(=O)[C@H](Cc2ccc(O)c(O)c2)NC(=O)[C@H](CCCCNC(=O)CN2CCN(CC(=O)O)CCN(CC(=O)O)CCN(CC(=O)O)CC2)NC(=O)[C@H]([C@@H](C)O)NC1=O [UPAR-284] (Butoxycarbonyl-CTK(DOTA)[Dopa]F[Hyp][Hyp]I[Nva]C-NH2; disulfide 1-10)
≥ 8.00

Reference source for all entries: patent EP4610269A1
